Target: T1, 4H454-AA
T1 chain: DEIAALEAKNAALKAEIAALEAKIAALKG
Test: two-hybrid library CCmax;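 further: natural log of median RNA to DNA barcode read ratio; higher means stronger binding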
Details: mean of both orientations
endpoint-name: interaction score

{"columns": ["binder", "interaction score"],
 "data": [
  ["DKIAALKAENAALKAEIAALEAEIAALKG [4H2754-AA]", 2.24],
  ["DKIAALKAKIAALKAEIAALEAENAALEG [4H2883-AA]", -0.344]
]}

1 = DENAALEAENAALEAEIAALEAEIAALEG [4H1153-AA]
2 = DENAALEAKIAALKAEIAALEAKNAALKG [4H1352-AA]
Q: Which is greater in interaction score, the first item 1 or the second item 2 ? Mark your selection by writing its label.
Result: 2
(2: 1.39, 1: 0.894)
